# Tgt: GPR73 (prokineticin 1 receptor) (Homo sapiens)
# Construct: expressed in transfected cells; host or cells: HEK 293
# Sequence (Q8TCW9 whole entry, species assumed): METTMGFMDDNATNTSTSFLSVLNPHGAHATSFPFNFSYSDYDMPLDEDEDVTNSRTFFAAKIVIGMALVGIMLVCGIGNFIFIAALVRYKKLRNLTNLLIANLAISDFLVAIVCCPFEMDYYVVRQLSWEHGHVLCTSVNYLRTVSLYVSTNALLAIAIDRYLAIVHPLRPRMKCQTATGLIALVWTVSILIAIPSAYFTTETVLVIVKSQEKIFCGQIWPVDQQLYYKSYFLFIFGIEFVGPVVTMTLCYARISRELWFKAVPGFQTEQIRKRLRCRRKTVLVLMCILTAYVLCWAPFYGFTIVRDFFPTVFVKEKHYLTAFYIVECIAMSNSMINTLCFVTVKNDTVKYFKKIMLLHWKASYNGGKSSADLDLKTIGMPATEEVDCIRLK
# Procedure summary: PK1 functional assay: Ca2+ mobilization on the FLIPR
# Format: cell-based
# Reported conditions: HEK 293 GPR73 cells; read-out: Ca^2+ Mobilization IC50
# label = yes (1) if IC50 < 200 nM else no (0)

Please review the following examples before continuing.
> print(dat)
                            chemical.string                                       tgt    group
1  CCc1ccc(Cn2c(=O)nc(NCCn3c(N)nc4ccccc43)n(Cc3ccc(OC(F)F)cc3)c2=O)cc1  GPR73 (prokineticin 1 receptor) (Homo sapiens)   no (0)
2  COc1ccc(Cn2c(NCCn3c(N)nc4cc(S(C)(=O)=O)ccc43)nc(=O)n(Cc3ccc(F)cc3)c2=O)cc1  GPR73 (prokineticin 1 receptor) (Homo sapiens)   no (0)
3  CCc1ccc(Cn2c(=O)nc(NCCc3cnc(N)[nH]3)n(Cc3ccc(OC)cc3)c2=O)cc1  GPR73 (prokineticin 1 receptor) (Homo sapiens)   no (0)
4  Nc1nc2ccccc2n1CCNc1nc(=O)n(Cc2ccc(Cl)c(Cl)c2)c(=O)n1Cc1ccc2c(c1)CCO2  GPR73 (prokineticin 1 receptor) (Homo sapiens)  yes (1)
5  Nc1nc2c(F)cc(F)cc2n1CCNc1nc(=O)n(Cc2ccc(F)cc2)c(=O)n1Cc1ccc(OC(F)(F)F)cc1  GPR73 (prokineticin 1 receptor) (Homo sapiens)   no (0)
6  COc1ccc(Cn2c(NCCn3c(N)nc4ccc(Cl)cc43)nc(=O)n(Cc3ccc(F)cc3)c2=O)cc1  GPR73 (prokineticin 1 receptor) (Homo sapiens)  yes (1)

Exercise: Given the entry `Nc1nc2ccc(F)cc2n1CCNc1nc(=O)n(Cc2ccc(F)cc2)c(=O)n1Cc1ccc(OC(F)F)cc1` , would its reported IC50 be below 200 nM?
Key: yes (1)
